B1: glmS ribozyme (parent)
chain: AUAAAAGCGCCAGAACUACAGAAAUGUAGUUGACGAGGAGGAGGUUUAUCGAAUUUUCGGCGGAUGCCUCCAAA

Variants of: B1
Test: self-cleavage kobs at 160 uM GlcN6P; higher = faster cleavage; RNA array
Settings: with glucosamine-6-phosphate
Fewer inactive variants are shown than the library holds.
measure: self-cleavage kobs at 160 uM GlcN6P

[
  {
    "variant": "A15G C68U",
    "measure": "self-cleavage kobs at 160 uM GlcN6P",
    "observed_measurement": "0.00032 s⁻¹"
  },
  {
    "variant": "C10G U65C",
    "measure": "self-cleavage kobs at 160 uM GlcN6P",
    "observed_measurement": "< 1e-05 s⁻¹"
  },
  {
    "variant": "G9A C61A",
    "measure": "self-cleavage kobs at 160 uM GlcN6P",
    "observed_measurement": "< 1e-05 s⁻¹"
  },
  {
    "variant": "C11G A33U",
    "measure": "self-cleavage kobs at 160 uM GlcN6P",
    "observed_measurement": "< 1e-05 s⁻¹"
  },
  {
    "variant": "G63U U69G",
    "measure": "self-cleavage kobs at 160 uM GlcN6P",
    "observed_measurement": "3.51e-05 s⁻¹"
  },
  {
    "variant": "A6U G32C G62U",
    "measure": "self-cleavage kobs at 160 uM GlcN6P",
    "observed_measurement": "< 1e-05 s⁻¹"
  },
  {
    "variant": "U31A C67U",
    "measure": "self-cleavage kobs at 160 uM GlcN6P",
    "observed_measurement": "0.000324 s⁻¹"
  },
  {
    "variant": "G44A G62A",
    "measure": "self-cleavage kobs at 160 uM GlcN6P",
    "observed_measurement": "< 1e-05 s⁻¹"
  },
  {
    "variant": "G41C G66A U69C",
    "measure": "self-cleavage kobs at 160 uM GlcN6P",
    "observed_measurement": "< 1e-05 s⁻¹"
  },
  {
    "variant": "G37C U46A",
    "measure": "self-cleavage kobs at 160 uM GlcN6P",
    "observed_measurement": "< 1e-05 s⁻¹"
  },
  {
    "variant": "C10G A52U G59C",
    "measure": "self-cleavage kobs at 160 uM GlcN6P",
    "observed_measurement": "< 1e-05 s⁻¹"
  },
  {
    "variant": "C10A U69G",
    "measure": "self-cleavage kobs at 160 uM GlcN6P",
    "observed_measurement": "3.29e-05 s⁻¹"
  },
  {
    "variant": "A53U U56C",
    "measure": "self-cleavage kobs at 160 uM GlcN6P",
    "observed_measurement": "0.000101 s⁻¹"
  },
  {
    "variant": "A42G C50G A64G",
    "measure": "self-cleavage kobs at 160 uM GlcN6P",
    "observed_measurement": "< 1e-05 s⁻¹"
  },
  {
    "variant": "G41U G62U",
    "measure": "self-cleavage kobs at 160 uM GlcN6P",
    "observed_measurement": "< 1e-05 s⁻¹"
  },
  {
    "variant": "G40U U56A",
    "measure": "self-cleavage kobs at 160 uM GlcN6P",
    "observed_measurement": "0.000124 s⁻¹"
  },
  {
    "variant": "G37A A53U",
    "measure": "self-cleavage kobs at 160 uM GlcN6P",
    "observed_measurement": "9.91e-05 s⁻¹"
  },
  {
    "variant": "G40C C50U U57A C58G U65A",
    "measure": "self-cleavage kobs at 160 uM GlcN6P",
    "observed_measurement": "< 1e-05 s⁻¹"
  },
  {
    "variant": "G38U U46G G60C",
    "measure": "self-cleavage kobs at 160 uM GlcN6P",
    "observed_measurement": "< 1e-05 s⁻¹"
  },
  {
    "variant": "A33G G59C",
    "measure": "self-cleavage kobs at 160 uM GlcN6P",
    "observed_measurement": "< 1e-05 s⁻¹"
  },
  {
    "variant": "A14G G40A",
    "measure": "self-cleavage kobs at 160 uM GlcN6P",
    "observed_measurement": "0.00119 s⁻¹"
  },
  {
    "variant": "A6C A15U C16U",
    "measure": "self-cleavage kobs at 160 uM GlcN6P",
    "observed_measurement": "< 1e-05 s⁻¹"
  }
]
